Origin of the recorded values: the supplement of paper PMC11061612

System: NUGC-3 (Gastric Carcinoma)
Test: combination Emax (second highest fraction inhibited in the dose matrix, 72 h); higher = more inhibition; extreme values may be limits of the assay
Property: combination Emax

compound="Cc1nc(Nc2ncc(C(=O)Nc3c(C)cccc3Cl)s2)cc(N2CCN(CCO)CC2)n1 [Dasatinib] + CC(=O)Nc1cccc(-n2c(=O)n(C3CC3)c(=O)c3c(Nc4ccc(I)cc4F)n(C)c(=O)c(C)c32)c1 [Trametinib] (first compound max 2 µM, 7x7, partner max 1 µM)" property="combination Emax" result=0.721
compound="CN(CCO)CC[C@H](CSc1ccccc1)Nc1ccc(S(=O)(=O)NC(=O)c2ccc(N3CCC([C@@H](O)c4ccccc4-c4ccc(Cl)cc4)CC3)cc2)cc1S(=O)(=O)C(F)(F)F [AZD4320] + C1CN(CCC1(C(=O)N[C@@H](CCO)C2=CC=C(C=C2)Cl)N)C3=NC=NC4=C3C=CN4 [Capivasertib] (first compound max 1 µM, 7x7, partner max 3 µM)" property="combination Emax" result=0.127
